System: 786-0 renal
measurement description: NCI-60 one-dose screen, 48 h
condition parameters: 10 µM unless noted
This is part of a sample that, as a whole, favours compounds with a hit. Of some 83,000 tested, about 20% had one in any assay. Calls of active or inactive are those of the source. Rule for the calls: active = growth percent below 10; inactive = the rest.
Answer with one of the outcomes YES (active), NO (inactive)

Worked cases, answers included:
O=C(CCl)Nc1ccc(NC(=O)c2cc(Cl)ccc2O)c(Cl)c1 ... NO
CN1c2ccccc2Sc2cc(/C=N/Nc3ccnc4cc(Cl)ccc34)ccc21 ... NO
O=C(CCCCCCNC(=O)C(O)(O)C(F)(F)F)Nc1ccc(Br)cc1 ... NO
CN(C)c1ccc(/C=N/Nc2nc(N/N=C/c3ccc(N(C)C)cc3)nc(N3CCCCC3)n2)cc1 ... NO

Dear colleague, could you share the recorded outcome for `COc1ccc(/C=N/NC(=O)CSc2nc(-c3cnccn3)cc(-c3cccs3)c2C#N)cc1OC` when you have a moment?
NO

Dear colleague, could you share the recorded outcome for `COc1ccc2[nH]cc(-c3nc(N)nnc3-c3cn(C)c4ccc(Br)cc34)c2c1` when you have a moment?
NO
